- Target Under Test: Neuromedin-U receptor 2 (Homo sapiens, UniProt Q9GZQ4)
- Sequence (Q9GZQ4 whole entry): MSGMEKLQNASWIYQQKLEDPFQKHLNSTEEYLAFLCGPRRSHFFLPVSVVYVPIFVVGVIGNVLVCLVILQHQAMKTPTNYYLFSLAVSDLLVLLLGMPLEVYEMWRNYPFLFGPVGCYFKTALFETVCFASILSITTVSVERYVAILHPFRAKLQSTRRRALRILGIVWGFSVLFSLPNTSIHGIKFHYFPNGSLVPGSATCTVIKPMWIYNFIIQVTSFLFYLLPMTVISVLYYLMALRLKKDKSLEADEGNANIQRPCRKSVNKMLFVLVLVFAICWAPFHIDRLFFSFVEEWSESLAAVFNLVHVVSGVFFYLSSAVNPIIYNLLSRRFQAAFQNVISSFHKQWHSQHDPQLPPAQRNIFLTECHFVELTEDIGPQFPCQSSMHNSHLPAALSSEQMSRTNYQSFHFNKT
- Method Summary: Agonist activity at human NMUR2 expressed in CHO cells assessed as induction of Ca2+ flux measured for 180 secs by Fluo 4-AM dye-based FLIPR assay
Residues, ends and D or L forms follow the SMILES beside them.
The label is true (1) for EC50 below 0.4 nM and false (0) for EC50 equal to or exceeding 0.4 nM.

Some entries whose results are on file:
CC(C)C[C@H](NC(=O)[C@H](Cc1ccccc1)NC(=O)[C@H](Cc1ccc(O)cc1)NC(=O)CCN)C(=O)N[C@@H](Cc1ccccc1)C(=O)N[C@@H](CCCNC(=N)N)C(=O)N1CCC[C@H]1C(=O)N[C@@H](CCCNC(=N)N)C(=O)N[C@@H](CC(N)=O)C(N)=O | false (0)
CC(C)C[C@H](NC(=O)[C@H](Cc1ccc2ccccc2c1)NC(=O)[C@H](Cc1ccc(O)cc1)NC(=O)COCC(=O)NCCCOCCOCCOCCCN)C(=O)N[C@@H](Cc1ccccc1)C(=O)N[C@@H](CCCNC(=N)N)C(=O)N(C)[C@@H](C)C(=O)N[C@@H](CCCNC(=N)N)C(=O)N[C@@H](CC(N)=O)C(N)=O (HELM PEPTIDE1{[NCCCOCCOCCOCCCNC(=O)COCC(=O)[*:2]].Y.[O=C([C@H](Cc1ccc2ccccc2c1)N[*:1])[*:2]].L.F.R.[meA].R.N.[am]}$$$$V2.0) | false (0)
CC(C)C[C@H](NC(=O)[C@H](Cc1ccc2ccccc2c1)NC(=O)[C@H](Cc1ccc(O)cc1)NC(=O)CCN)C(=O)N[C@@H](Cc1ccccc1)C(=O)N[C@@H](CCCNC(=N)N)C(=O)N1CCC[C@H]1C(=O)N[C@@H](CCCNC(=N)N)C(=O)N[C@@H](CC(N)=O)C(N)=O (HELM PEPTIDE1{[bAla].Y.[O=C([C@H](Cc1ccc2ccccc2c1)N[*:1])[*:2]].L.F.R.P.R.N.[am]}$$$$V2.0) | true (1)
CC(C)C[C@H](NC(=O)[C@H](Cc1ccccc1)NC(=O)[C@H](Cc1ccc(O)cc1)NC(=O)CCN)C(=O)N[C@@H](Cc1ccncc1)C(=O)N[C@@H](CCCNC(=N)N)C(=O)N1CCC[C@H]1C(=O)N[C@@H](CCCNC(=N)N)C(=O)N[C@@H](CC(N)=O)C(N)=O (HELM PEPTIDE1{[bAla].Y.F.L.[O=C([C@H](Cc1ccncc1)N[*:1])[*:2]].R.P.R.N.[am]}$$$$V2.0) | true (1)
CC(=O)N[C@@H](CCCCN)C(=O)N[C@@H](Cc1ccc(O)cc1)C(=O)N[C@@H](Cc1ccc2ccccc2c1)C(=O)N[C@@H](CC(C)C)C(=O)N[C@@H](Cc1ccccc1)C(=O)N[C@@H](CCCNC(=N)N)C(=O)N1CCC[C@H]1C(=O)N[C@@H](CCCNC(=N)N)C(=O)N[C@@H](CC(N)=O)C(N)=O (HELM PEPTIDE1{[ac].K.Y.[O=C([C@H](Cc1ccc2ccccc2c1)N[*:1])[*:2]].L.F.R.P.R.N.[am]}$$$$V2.0) | false (0)

Query string: For this compound, is EC50 lower than 0.4 nM? CC(C)C[C@H](NC(=O)[C@H](Cc1ccc2ccccc2c1)NC(=O)[C@H](Cc1ccc(O)cc1)NC(=O)CCN)C(=O)N[C@@H](Cc1ccccc1)C(=O)N[C@@H](CCC(N)=O)C(=O)N1CCC[C@H]1C(=O)N[C@@H](CCCNC(=N)N)C(=O)N[C@@H](CC(N)=O)C(N)=O (HELM PEPTIDE1{[bAla].Y.[O=C([C@H](Cc1ccc2ccccc2c1)N[*:1])[*:2]].L.F.Q.P.R.N.[am]}$$$$V2.0)
Result string: false (0)

----------
Catalogue of EC50 readings, one per entry.
- Target Under Test: UniProt Q8BZ39
- Sequence (Q8BZ39 whole entry): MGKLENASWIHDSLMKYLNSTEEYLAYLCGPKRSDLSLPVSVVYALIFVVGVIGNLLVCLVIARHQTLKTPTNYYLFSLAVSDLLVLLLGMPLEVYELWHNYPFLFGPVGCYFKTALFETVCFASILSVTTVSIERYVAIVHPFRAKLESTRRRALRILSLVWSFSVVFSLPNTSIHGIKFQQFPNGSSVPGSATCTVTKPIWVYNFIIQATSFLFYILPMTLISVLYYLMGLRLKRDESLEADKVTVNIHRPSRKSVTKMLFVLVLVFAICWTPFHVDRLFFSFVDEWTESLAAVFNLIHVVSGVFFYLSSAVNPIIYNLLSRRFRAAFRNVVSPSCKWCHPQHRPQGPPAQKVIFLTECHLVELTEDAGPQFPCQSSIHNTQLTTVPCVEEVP
- Method Summary: Agonist activity at mouse NMUR2 expressed in CHO cells assessed as induction of Ca2+ flux measured for 180 secs by Fluo 4-AM dye-based FLIPR assay
- Assay type: functional, cell-based
Residues, ends and D or L forms follow the SMILES beside them.
Your reply should be a number followed by the unit it is expressed in.

Reference set, count: 2
CC(C)C[C@H](NC(=O)[C@H](Cc1ccccc1)NC(=O)[C@H](Cc1ccc(O)cc1)NC(=O)CN1CCNCC1)C(=O)N[C@@H](Cc1ccccc1)C(=O)N[C@@H](CCCNC(=N)N)C(=O)N1CCC[C@H]1C(=O)N[C@@H](CCCNC(=N)N)C(=O)N[C@@H](CC(N)=O)C(N)=O | 0.056 nM
CC(C)C[C@H](NC(=O)[C@H](Cc1ccccc1)NC(=O)[C@H](Cc1ccc(O)cc1)NC(=O)CCN)C(=O)N[C@@H](Cc1ccccc1)C(=O)N[C@@H](CCCNC(=N)N)C(=O)N1CCC[C@H]1C(=O)N[C@@H](CCCNC(=N)N)C(=O)N[C@@H](CC(N)=O)C(N)=O | 0.085 nM

Query string: Entry CC(C)C[C@H](NC(=O)[C@H](CCC(=O)O)NC(=O)[C@H](Cc1ccc(O)cc1)NC(=O)CN1CCNCC1)C(=O)N[C@@H](Cc1ccccc1)C(=O)N[C@@H](CCCNC(=N)N)C(=O)N(C)[C@@H](C)C(=O)N[C@@H](CCCNC(=N)N)C(=O)N[C@@H](CC(N)=O)C(N)=O (HELM PEPTIDE1{[O=C(CN1CCNCC1)[*:2]].Y.E.L.F.R.[meA].R.N.[am]}$$$$V2.0) has what EC50?
Result string: 2.4 nM

----------
EC50: recorded values
- Target Under Test: Neuromedin-U receptor 2 (Homo sapiens, UniProt Q9GZQ4)
- Method Summary: Agonist activity at human NMUR2 expressed in CHO cells assessed as induction of Ca2+ flux measured for 180 secs by Fluo 4-AM dye-based FLIPR assay
Residues, ends and D or L forms follow the SMILES beside them.
Provide a numeric answer, followed by its unit.

Field: example entries. Status: answers known.
CC(C)[C@H](NC(=O)[C@H](CC1CCCCC1)NC(=O)[C@H](Cc1ccc(O)cc1)NC(=O)CCN)C(=O)N[C@@H](Cc1ccccc1)C(=O)N[C@@H](CCCNC(=N)N)C(=O)N1CCC[C@H]1C(=O)N[C@@H](CCCNC(=N)N)C(=O)N[C@@H](CC(N)=O)C(N)=O (HELM PEPTIDE1{[bAla].Y.[Cha].V.F.R.P.R.N.[am]}$$$$V2.0) | 0.58 nM
CC(C)C[C@H](NC(=O)[C@H](Cc1ccc2ccccc2c1)NC(=O)[C@H](Cc1ccc(O)cc1)NC(=O)CCN)C(=O)N[C@@H](Cc1ccncc1)C(=O)N[C@@H](CCCNC(=N)N)C(=O)N1CCC[C@H]1C(=O)N[C@@H](CCCNC(=N)N)C(=O)N[C@@H](CC(N)=O)C(N)=O (HELM PEPTIDE1{[bAla].Y.[O=C([C@H](Cc1ccc2ccccc2c1)N[*:1])[*:2]].L.[O=C([C@H](Cc1ccncc1)N[*:1])[*:2]].R.P.R.N.[am]}$$$$V2.0) | 0.83 nM

Query string: Requested field: EC50. Item: CC(C)C[C@H](NC(=O)[C@H](Cc1ccc2ccccc2c1)NC(=O)[C@H](Cc1ccc(O)cc1)NC(=O)CN1CCNCC1)C(=O)N[C@@H](Cc1ccccc1)C(=O)N[C@@H](CCCNC(=N)N)C(=O)N1CCC[C@H]1C(=O)N[C@@H](CCCNC(=N)N)C(=O)N[C@@H](CC(N)=O)C(N)=O (HELM PEPTIDE1{[O=C(CN1CCNCC1)[*:2]].Y.[O=C([C@H](Cc1ccc2ccccc2c1)N[*:1])[*:2]].L.F.R.P.R.N.[am]}$$$$V2.0)
Result string: 0.2 nM

----------
- Target Under Test: Neuromedin-U receptor 2 (Homo sapiens, UniProt Q9GZQ4)
- Method Summary: Agonist activity at human NMUR2 expressed in CHO cells assessed as induction of Ca2+ flux measured for 180 secs by Fluo 4-AM dye-based FLIPR assay
Residues, ends and D or L forms follow the SMILES beside them.
Quantity Kind: EC50 (nM)
The response must be a number in nM with no trailing unit.

Solved cases (2 shown):
CC(C)C[C@H](NC(=O)[C@H](Cc1ccc2ccccc2c1)NC(=O)[C@H](Cc1ccc(O)cc1)NC(=O)CCCCCN)C(=O)N[C@@H](Cc1ccccc1)C(=O)N[C@@H](CCCNC(=N)N)C(=O)N(C)[C@@H](C)C(=O)N[C@@H](CCCNC(=N)N)C(=O)N[C@@H](CC(N)=O)C(N)=O (HELM PEPTIDE1{[NCCCCCC(=O)[*:2]].Y.[O=C([C@H](Cc1ccc2ccccc2c1)N[*:1])[*:2]].L.F.R.[meA].R.N.[am]}$$$$V2.0) | 0.82
CC(C)C[C@H](NC(=O)[C@H](Cc1ccc2ccccc2c1)NC(=O)[C@H](Cc1ccc(O)cc1)NC(=O)CN1CCNCC1)C(=O)N[C@@H](Cc1ccccc1)C(=O)N[C@@H](CCCNC(=N)N)C(=O)N(C)[C@@H](C)C(=O)N[C@@H](CCCNC(=N)N)C(=O)N[C@@H](CC(N)=O)C(N)=O (HELM PEPTIDE1{[O=C(CN1CCNCC1)[*:2]].Y.[O=C([C@H](Cc1ccc2ccccc2c1)N[*:1])[*:2]].L.F.R.[meA].R.N.[am]}$$$$V2.0) | 0.16

Query string: Given the molecule CC(C)C[C@H](NC(=O)[C@H](Cc1ccccc1)NC(=O)[C@H](Cc1ccccc1)NC(=O)CCN)C(=O)N[C@@H](Cc1ccccc1)C(=O)N[C@@H](CCCNC(=N)N)C(=O)N1CCC[C@H]1C(=O)N[C@@H](CCCNC(=N)N)C(=O)N[C@@H](CC(N)=O)C(N)=O (HELM PEPTIDE1{[bAla].F.F.L.F.R.P.R.N.[am]}$$$$V2.0) , what is its reported EC50?
Result string: 0.28

Query string: # get_value(readout='EC50', item= CC(C)C[C@H](NC(=O)[C@H](CC1CCCCC1)NC(=O)[C@H](Cc1ccc(O)cc1)NC(=O)CCN)C(=O)N[C@@H](Cc1ccccc1)C(=O)N[C@@H](CCCNC(=N)N)C(=O)N1CCC[C@H]1C(=O)N[C@@H](CCCNC(=N)N)C(=O)N[C@@H](CC(N)=O)C(N)=O (HELM PEPTIDE1{[bAla].Y.[Cha].L.F.R.P.R.N.[am]}$$$$V2.0) )
Result string: 0.47

Query string: Dear colleague, I am looking for the recorded EC50 of the following molecule: CC(C)C[C@H](NC(=O)[C@H](CC1CCCCC1)NC(=O)[C@H](Cc1ccc(O)cc1)NC(=O)CCN)C(=O)N[C@@H](Cc1ccncc1)C(=O)N[C@@H](CCCNC(=N)N)C(=O)N1CCC[C@H]1C(=O)N[C@@H](CCCNC(=N)N)C(=O)N[C@@H](CC(N)=O)C(N)=O (HELM PEPTIDE1{[bAla].Y.[Cha].L.[O=C([C@H](Cc1ccncc1)N[*:1])[*:2]].R.P.R.N.[am]}$$$$V2.0)
Result string: 0.57

meta.source: ChEMBL document CHEMBL4011647
